# Tested on: Enterococcus faecalis
# Assay Name: In vitro antibacterial activity against Enterococcus faecalis ATCC 29212 (E. f. 034) vancomycin sensitive
# Assay type: functional
Measure: MIC (µg/mL)
Numbers only, in µg/mL.

Example cases with answers are listed next.
INSERT INTO results (structure_smiles_string, measure, observed) VALUES
  ('O=C(NC[C@H]1CN(c2ccc3c(c2)OC[C@@H]2CCCN32)C(=O)O1)C(Cl)Cl', 'MIC', 8),
  ('CCC(=O)NC[C@H]1CN(c2cc(F)c3c(c2)OC[C@@H]2CCCN32)C(=O)O1', 'MIC', 4),
  ('CCC/C(S)=N\C[C@H]1CN(c2cc(F)c3c(c2)OC[C@@H]2CCCN32)C(=O)O1', 'MIC', 1);

Report MIC for every entry below.
1. CO/C(S)=N\C[C@H]1CN(c2cc(F)c3c(c2)OC[C@@H]2CCCN32)C(=O)O1
2. O=C(CCl)NC[C@H]1CN(c2ccc3c(c2)OC[C@@H]2CCCN32)C(=O)O1

Response:
1: 0.5; 2: 4
